- procedure-summary: Selectivity index, ratio of IC50 for human MCF-10A cells to IC50 for human MCF-7 cells
- Format: toxicity
- protocol-conditions: MCF-10A cells and MCF-7 cells, read-out: Ratio IC50
observation-type: selectivity ratio

The following compounds have reported results that may help.
compound: O=S(=O)(Oc1ccccc1)C1CC2OC1C(c1ccc(O)cc1)=C2c1ccc(O)cc1 (stereo not given)
selectivity ratio: > 4.11
//
compound: COc1ccc(OS(=O)(=O)C2CC3OC2C(c2ccc(O)cc2)=C3c2ccc([Se]c3ccccc3)cc2)cc1 (stereo not given)
selectivity ratio: > 8.04
//
compound: O=S(=O)(Oc1ccc([Se]c2ccccc2)cc1)C1CC2OC1C(c1ccc(O)cc1)=C2c1ccc(O)cc1 (stereo not given)
selectivity ratio: > 75
//
compound: O=S(=O)(Oc1cccc2ccccc12)C1CC2OC1C(c1ccc(O)cc1)=C2c1ccc([Se]c2ccccc2)cc1 (stereo not given)
selectivity ratio: > 53.1

Attention now shifts to the item below.
Challenge: Suppose we examine the compound O=S(=O)(Oc1ccccc1)C1CC2OC1C(c1ccc(O)cc1)=C2c1ccc([Se]c2ccccc2)cc1 (stereo not given) ; what selectivity ratio value has been reported?
Response given: > 375

Origin of the recorded values: ChEMBL document CHEMBL5154927
